# Tested on: 422866-222-R5-J1-PDC complex spheroids viability;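 also: spheroids exposed to compounds for 7 days; 100% = DMSO vehicle control viability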
# Method description: Anticancer human tumor 422866-222-R5-J1-PDC patient-derived pancreatic adenocarcinoma cell line growth inhibition [RAS]
# Test context: second compound 0.316 µM; first compound 0.316 µM; hits give low values
Rule: viability, T/C below 40% gives 1, anything at or above gives 0.

1. CCN1CCN(Cc2ccc(Nc3ncc(F)c(-c4cc(F)c5nc(C)n(C(C)C)c5c4)n3)nc2)CC1 + C=CC(=O)N1CCN(c2nc(OCC3CCCN3C)nc3c(F)c(-c4nc(N)cc(C)c4C(F)(F)F)c(Cl)cc23)C(C)C1; 1
2. Nc1ccn(C2OC(CO)C(O)C2(F)F)c(=O)n1 (stereo unspecified) + C#Cc1c(F)ccc2cc(O)cc(-c3ncc4c(N5CC6CCC(C5)N6)nc(OCC56CCCN5CC(F)C6)nc4c3F)c12; 1
3. CCC(CC)c1cc(NC2CCC(N)C2)n2nccc2n1 (stereo unspecified) + C#Cc1c(F)ccc2cc(O)cc(-c3ncc4c(N5CC6CCC(C5)N6)nc(OCC56CCCN5CC(F)C6)nc4c3F)c12; 0
4. C=CC(=O)Nc1cc(Nc2nccc(-c3cn(C)c4ccccc34)n2)c(OC)cc1N(C)CCN(C)C + C#Cc1c(F)ccc2cc(O)cc(-c3ncc4c(N5CC6CCC(C5)N6)nc(OCC56CCCN5CC(F)C6)nc4c3F)c12; 0
5. CCN1CCN(Cc2ccc(Nc3ncc(F)c(-c4cc(F)c5nc(C)n(C(C)C)c5c4)n3)nc2)CC1 + C#Cc1c(F)ccc2cc(O)cc(-c3ncc4c(N5CC6CCC(C5)N6)nc(OCC56CCCN5CC(F)C6)nc4c3F)c12; 0
6. CCC(CC)c1cc(NC2CCC(N)C2)n2nccc2n1 (stereo unspecified) + C=CC(=O)N1CCN(c2nc(OCC3CCCN3C)nc3c(F)c(-c4nc(N)cc(C)c4C(F)(F)F)c(Cl)cc23)C(C)C1; 1
7. CC(=O)OC12COC1CC(O)C1(C)C(=O)C(O)C3=C(C)C(OC(=O)C(O)C(NC(=O)OC(C)(C)C)c4ccccc4)CC(O)(C(OC(=O)c4ccccc4)C21)C3(C)C (stereo unspecified) + C=CC(=O)N1CCN(c2nc(OCC3CCCN3C)nc3c(F)c(-c4nc(N)cc(C)c4C(F)(F)F)c(Cl)cc23)C(C)C1; 1
8. NC1c2ccccc2OC12CCN(c1cnc3c(N4CCCc5ncccc54)n[nH]c3n1)CC2 (stereo unspecified) + C=CC(=O)N1CCN(c2nc(OCC3CCCN3C)nc3c(F)c(-c4nc(N)cc(C)c4C(F)(F)F)c(Cl)cc23)C(C)C1; 1
9. Cc1nc(N2CCC3(CC2)COC(C)C3N)c(CO)nc1Sc1ccnc(N)c1Cl (stereo unspecified) + C#Cc1c(F)ccc2cc(O)cc(-c3ncc4c(N5CC6CCC(C5)N6)nc(OCC56CCCN5CC(F)C6)nc4c3F)c12; 1
10. Cc1nc(N2CCC3(CC2)COC(C)C3N)c(CO)nc1Sc1ccnc(N)c1Cl (stereo unspecified) + C=CC(=O)N1CCN(c2nc(OCC3CCCN3C)nc3c(F)c(-c4nc(N)cc(C)c4C(F)(F)F)c(Cl)cc23)C(C)C1; 1
11. CC(Nc1ccc2c(c1)OCCn1cc(N3C(=O)OCC3C(F)F)nc1-2)C(N)=O (stereo unspecified) + C#Cc1c(F)ccc2cc(O)cc(-c3ncc4c(N5CC6CCC(C5)N6)nc(OCC56CCCN5CC(F)C6)nc4c3F)c12; 1
